The measurements presented in this section are drawn from paper PMC8228365.

System: CHOZN 10 cells
Measurement protocol: CellTiter-Glo cytotoxicity assay in CHOZN 10 cell line
Assay type: cell-based, Chinese hamster
Experimental setup: Cricetulus griseus; CHOZN 10 cell line; 1 mM to 46 nM, 4PL fit; read-out: [GI50] CHOZN 10
Measured metric: GI50 (µM)

| Molecule | Target desc | Result unit | Value measured |
| --- | --- | --- | --- |
| O=Cc1c[nH]c2ccccc12 [Compound 18, Indole-3-carboxaldehyde] | CHOZN 10 cells | µM | 258 |
| OCc1nccc2c1[nH]c1ccccc12 [Compound 29] | CHOZN 10 cells | µM | 347 |
| O=C(O)c1cc2c([nH]c3ccccc32)c(-c2ccnc3ccccc23)n1 [Compound 38] | CHOZN 10 cells | µM | 114 |
| O=CCc1c[nH]c2ccccc12 [Compound 12, Indole-3-acetaldehyde] | CHOZN 10 cells | µM | 92.3 |
| O=C(O)C1Cc2c([nH]c3ccccc23)C=N1 (stereo not drawn) [Compound 24] | CHOZN 10 cells | µM | 306 |
| O=C(O)c1nccc2c1[nH]c1ccccc12 [Compound 5, 9H-Pyrido[3,4-b]indole-1-carboxylic acid] | CHOZN 10 cells | µM | 75.5 |
| O=C(O)c1cc2c([nH]c3ccccc32)c(C(=O)c2c[nH]c3ccccc23)n1 [Compound 31] | CHOZN 10 cells | µM | 14.4 |
| O=C(O)c1cc2c([nH]c3ccccc32)c(-c2ccccc2)n1 [Compound 16] | CHOZN 10 cells | µM | 57.6 |
| c1ccc2c(-c3nccc4c3[nH]c3ccccc34)c[nH]c2c1 [Compound 34, 1-(1H-Indol-3-yl)-9H-pyrido[3,4-b]indole] | CHOZN 10 cells | µM | 13.1 |
